Where do the numbers come from? From patent US9908879B2.

Some compounds, each annotated with its measured pIC50.
TARGET ENTITY: P2X2/3 (UniProt P56373+Q9UBL9)
Construct: hP2X2/3 (Cat #6179)
METHOD: FLIPR intracellular calcium assay, P2X2/3
SETTINGS: agonist at EC75, species of receptor not given
pIC50: −log10 of the molar value.

# MOLECULE SMILES, pIC50
rows = [
    ("Cc1ccc(-c2cnc3c(-n4nnnc4C4CCC4)cc(C(=O)N[C@@H](C)c4nnc[nH]4)cn23)s1", "7.00 to 9.00"),
    ("Cc1ccc(-c2cnc3c(N4CCC(F)(F)CC4)cc(C(=O)NCc4ccc(C)[n+]([O-])c4)cn23)s1", "7.00 to 9.00"),
    ("Cc1ccc(-c2cnc3c(N4CCC(CF)CC4)cc(C(=O)NCc4ccc(C)[n+]([O-])c4)cn23)s1", "7.00 to 9.00"),
    ("Cc1ccc(-c2cnc3c(N4CCC(C(F)(F)F)CC4)cc(C(=O)NCc4ccc(C)[n+]([O-])c4)cn23)s1", "6.00 to 7.00"),
    ("Cc1ccc(-c2cnc3c(N4CCC(C)CC4)cc(C(=O)NCc4ccc[n+]([O-])c4)cn23)s1", "6.00 to 7.00"),
    ("Cc1ccc(-c2cnc3c(N4CCC(C)(C)CC4)cc(C(=O)NCc4ccc(C)[n+]([O-])c4)cn23)s1", "7.00 to 9.00"),
    ("Cc1ccc(-c2cnc3c(N4CCC(C)CC4)cc(C(=O)NCc4ccc(C)[n+]([O-])c4)cn23)s1", "7.00 to 9.00"),
    ("Cc1ccc(-c2cnc3c(N4CCC(F)(F)CC4)cc(C(=O)N[C@@H](C)C4=NN=CC4)cn23)s1", "6.00 to 7.00"),
    ("Cc1ccc(CNC(=O)c2cc(N3CCC(C)CC3)c3ncc(-c4ccc(Cl)s4)n3c2)c[n+]1[O-]", "6.00 to 7.00"),
    ("Cc1ccc(-c2cnc3c(N4CCC(F)CC4)cc(C(=O)NCc4ccc(C)[n+]([O-])c4)cn23)s1", "7.00 to 9.00"),
]

Q: I'd like to know its pIC50. The compound in question is `CCCCc1cnc2c(N3CCC(C)CC3)cc(C(=O)N[C@@H](C)c3nnc[nH]3)cn12`
Ans: 5.00 to 6.00

* * *

TARGET ENTITY: P2X3 (UniProt P56373)
METHOD: FLIPR intracellular calcium assay, P2X3
Format: cell-based, human or rat
SETTINGS: agonist at EC75, species of receptor not given
pIC50: −log10 of the molar value.
Reported pIC50 values for a set of compounds

Solved cases below.
# MOLECULE SMILES, pIC50
measured = [
    ("Cc1ccc(-c2cnc3c(N4CCC(F)CC4)cc(C(=O)NCc4ccc(C)[n+]([O-])c4)cn23)s1", "< 5.00"),
    ("Cc1ccc(-c2cnc3c(N4CCC(CF)CC4)cc(C(=O)NCc4ccc(C)[n+]([O-])c4)cn23)s1", "7.00 to 9.00"),
]

Q: Form field: reported pIC50 of `Cc1ccc(CNC(=O)c2cc(N3CCC(C)CC3)c3ncc(-c4ccc(Cl)s4)n3c2)c[n+]1[O-]`
Ans: 7.00 to 9.00

Q: For the compound `Cc1ccc(-c2cnc3c(N4CCC(F)(F)CC4)cc(C(=O)N[C@@H](C)C4=NN=CC4)cn23)s1` , what pIC50 is on record?
Ans: 5.00 to 6.00

* * *

TARGET ENTITY: P2X2/3 (UniProt P56373+Q9UBL9)
Construct: hP2X2/3 (Cat #6179)
Sequence (P56373 1-397): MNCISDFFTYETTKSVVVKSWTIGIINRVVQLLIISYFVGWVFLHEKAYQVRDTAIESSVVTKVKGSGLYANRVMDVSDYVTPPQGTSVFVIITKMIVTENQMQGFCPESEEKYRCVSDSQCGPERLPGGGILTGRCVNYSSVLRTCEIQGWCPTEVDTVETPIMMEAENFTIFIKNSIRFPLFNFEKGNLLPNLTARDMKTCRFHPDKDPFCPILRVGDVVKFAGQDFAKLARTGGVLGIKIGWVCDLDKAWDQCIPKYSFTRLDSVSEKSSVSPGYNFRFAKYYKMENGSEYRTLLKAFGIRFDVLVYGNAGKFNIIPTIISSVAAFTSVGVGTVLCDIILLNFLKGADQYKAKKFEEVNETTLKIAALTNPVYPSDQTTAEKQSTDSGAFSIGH
Sequence (Q9UBL9 1-471): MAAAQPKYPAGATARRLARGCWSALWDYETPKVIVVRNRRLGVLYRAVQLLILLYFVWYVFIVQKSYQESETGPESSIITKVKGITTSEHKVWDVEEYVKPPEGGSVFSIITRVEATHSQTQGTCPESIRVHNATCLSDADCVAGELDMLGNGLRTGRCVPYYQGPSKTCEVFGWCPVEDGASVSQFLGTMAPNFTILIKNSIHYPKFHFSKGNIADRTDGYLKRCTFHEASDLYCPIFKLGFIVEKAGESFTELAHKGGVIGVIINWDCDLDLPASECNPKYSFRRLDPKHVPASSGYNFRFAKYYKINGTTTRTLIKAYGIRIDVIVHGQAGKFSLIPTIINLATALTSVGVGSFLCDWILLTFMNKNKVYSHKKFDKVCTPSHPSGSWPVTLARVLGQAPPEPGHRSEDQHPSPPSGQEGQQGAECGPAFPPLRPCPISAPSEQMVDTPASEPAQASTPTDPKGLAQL
METHOD: FLIPR intracellular calcium assay, P2X2/3
SETTINGS: agonist at EC75, species of receptor not given
pIC50: −log10 of the molar value.
MEASURED ENDPOINT: pIC50

Recorded pIC50, per entry:
# MOLECULE SMILES, MEASURED ENDPOINT, OBSERVED MEASUREMENT
records = [
    ("Cc1ccc(-c2cnc3c(NC4CCCCC4)cc(C(=O)NCc4ccc(C(F)(F)F)[n+]([O-])c4)cn23)s1", "pIC50", "6.00 to 7.00"),
    ("Cc1ccc(-c2cnc3c(-n4nnnc4C4CC4)cc(C(=O)N[C@@H](C)c4nnc[nH]4)cn23)s1", "pIC50", "6.00 to 7.00"),
    ("Cc1ccc(-c2cnc3c(N(C)C4CCCCC4)cc(C(=O)NCc4ccc(C)[n+]([O-])c4)cn23)s1", "pIC50", "7.00 to 9.00"),
]

Q: May I ask what pIC50 has been recorded for `Cc1ccc(-c2cnc3c(Nc4ccccc4)cc(C(=O)NCc4ccc(C)[n+]([O-])c4)cn23)s1` ?
Ans: 6.00 to 7.00

* * *

TARGET ENTITY: UniProt:P56373
METHOD: FLIPR intracellular calcium assay, P2X3
SETTINGS: agonist at EC75, species of receptor not given
MEASURED ENDPOINT: IC50

Recorded results for 5 compounds are shown here.
# MOLECULE SMILES, IC50
measured = [
    ("COc1ccc(CNC(=O)c2cc(-n3nnnc3C3CCC3)c3ncc(-c4ccc(C)s4)n3c2)cn1", "> 10000 nM"),
    ("Cc1ccc(-c2cnc3c(N4CCC(F)(F)CC4)cc(C(=O)NCc4ccc(C)[n+]([O-])c4)cn23)s1", "> 10000 nM"),
    ("Cc1ccc(-c2cnc3c(Nc4ccccc4)cc(C(=O)NCc4ccc(C)[n+]([O-])c4)cn23)s1", "1 to 100 nM"),
    ("Cc1ccc(-c2cnc3c(-n4nnnc4C4CCC4)cc(C(=O)N[C@@H](C)c4nnc[nH]4)cn23)s1", "1 to 100 nM"),
    ("Cc1ccc(-c2cnc3c(N(C)C4CCCCC4)cc(C(=O)NCc4ccc(C)[n+]([O-])c4)cn23)s1", "> 10000 nM"),
]

Q: Consider the compound shown here: `Cc1ccc(-c2cnc3c(N4CCC(C)CC4)cc(C(=O)NCc4ccc(C)[n+]([O-])c4)cn23)s1` What is its recorded IC50?
Ans: 1 to 100 nM

Q: Given the entry `Cc1ccc(-c2cnc3c(N4CCC(C)CC4)cc(C(=O)NCc4ccc[n+]([O-])c4)cn23)s1` , report its measured IC50.
Ans: 1000 to 10000 nM

Q: Name the reported IC50 value associated with the compound `Cc1ccc(-c2cnc3c(NC4CCCCC4)cc(C(=O)NCc4ccc(C(F)(F)F)[n+]([O-])c4)cn23)s1`
Ans: 100 to 1000 nM

Q: Value lookup for IC50; key = `Cc1cnc(-c2cnc3c(N4CCC(C)CC4)cc(C(=O)NCc4ccc(C)[n+]([O-])c4)cn23)s1`
Ans: 100 to 1000 nM

Q: Form field: reported IC50 of `Cc1ccc(-c2cnc3c(N4CCC(C(F)(F)F)CC4)cc(C(=O)NCc4ccc(C)[n+]([O-])c4)cn23)s1`
Ans: 1 to 100 nM

Q: Report IC50 for `CCCSc1cnc2c(N3CCC(C)CC3)cc(C(=O)NCc3ccc(C)[n+]([O-])c3)cn12` please.
Ans: 1 to 100 nM

Q: I have this compound here, `Cc1ccc(-c2cnc3c(N4CCC(C)(C)CC4)cc(C(=O)NCc4ccc(C)[n+]([O-])c4)cn23)s1` , and I need its recorded IC50.
Ans: 1 to 100 nM

Q: I am curious: what IC50 value has been reported for `CCCCc1cnc2c(N3CCC(C)CC3)cc(C(=O)N[C@@H](C)c3nnc[nH]3)cn12` ?
Ans: 1000 to 10000 nM

Q: I'd like to know its IC50. The compound in question is `Cc1ccc(-c2cnc3c(-n4nnnc4C4CC4)cc(C(=O)N[C@@H](C)c4nnc[nH]4)cn23)s1`
Ans: 1 to 100 nM

Q: Can you look up the measured IC50 of `Cc1ccc(-c2cnc3c(NC4CCCCC4)cc(C(=O)NCc4ccc(C)[n+]([O-])c4)cn23)s1` for me?
Ans: 1 to 100 nM
